system: TK-10 renal; assay: NCI-60 one-dose screen, 48 h (100 = growth as untreated, 0 = no growth, -100 = all killed); settings: 10 µM unless noted
This is part of a sample that, as a whole, favours compounds with a hit. Of some 83,000 tested, about 20% had one in any assay.
Known growth of a selection of molecules
Number only, in %; omit the unit.

INPUT: # assay system TK-10 renal: give growth of O=C1C(=O)c2c(ccc3ccccc23)-c2ccccc21
OUTPUT: 14.7

INPUT: # assay system TK-10 renal: give growth of COc1ccc(-c2nsc3c2NC(=O)CC3c2ccc3c(c2)OCCO3)cc1 (stereo unspecified)
OUTPUT: 43.4

INPUT: # assay system TK-10 renal: give growth of CCOC(=O)c1c2c(c(C)n1Cc1ccc(OC)cc1)-c1oncc1CC2
OUTPUT: 102

INPUT: # assay system TK-10 renal: give growth of O=c1[nH]nnc2c1ncn2C1OC(CO)C(O)C1O (stereo unspecified)
OUTPUT: 39.8

INPUT: # assay system TK-10 renal: give growth of O=c1oc2ccc(Cl)cc2c(=O)n1-c1ccc(F)cc1F
OUTPUT: 21

INPUT: # assay system TK-10 renal: give growth of Clc1ccc(COc2ccc(Nc3ncnc4onc(-c5ccccc5)c34)cc2)cc1
OUTPUT: 91.4

INPUT: # assay system TK-10 renal: give growth of COc1cc2nc(-c3cnc(N(C)C)nc3)nc(NC3CCN(Cc4ccccc4)CC3)c2cc1OC
OUTPUT: -98.6

INPUT: # assay system TK-10 renal: give growth of CC1=C(C(=O)OCC2CCN(C(=O)OC(C)(C)C)CC2)[C@H](c2cccc(Br)c2)C2=C(CC(C)(C)CC2=O)N1
OUTPUT: 38.9

INPUT: # assay system TK-10 renal: give growth of O=C(/C=C/c1ccccn1)c1ccc(OCc2nnc(-c3ccc(Cl)cc3)o2)cc1
OUTPUT: 16.6

INPUT: # assay system TK-10 renal: give growth of C=C1C(=O)O[C@H]2[C@H]1CC/C(COC(=O)/C=C\C(=O)O)=C\CC[C@@]1(C)O[C@@H]21
OUTPUT: 106

INPUT: # assay system TK-10 renal: give growth of COC(=O)c1c2c(c(C)[n+]([O-])c1C)C(=O)C=C(NCc1ccc(F)c(F)c1)C2=O
OUTPUT: 3.98

INPUT: # assay system TK-10 renal: give growth of CCN(CC)c1cc(C)c2cc(NC(=O)c3cccc(OC)c3)ccc2n1
OUTPUT: 114

INPUT: # assay system TK-10 renal: give growth of O=C1c2cc(Br)ccc2Oc2cc([N+](=O)[O-])ccc2N1c1ccc(I)cc1F
OUTPUT: 112

INPUT: # assay system TK-10 renal: give growth of O=C1/C(=C/c2ccc(O)cc2)COc2ccc(O)c(O)c21
OUTPUT: 54.1

INPUT: # assay system TK-10 renal: give growth of COC(=O)[C@@H]1CCCN1C(=O)[C@H]1CCCN1C(=O)[C@@H](Cc1c[nH]c2ccccc12)NC(=S)Nc1cc(C(F)(F)F)cc(C(F)(F)F)c1
OUTPUT: 78.7

INPUT: # assay system TK-10 renal: give growth of Cn1c(C(=O)c2cccc3ccccc23)nc2ccccc21
OUTPUT: 21.3

INPUT: # assay system TK-10 renal: give growth of CC(=O)Nc1nc2c(s1)CCc1c-2cn(S(=O)(=O)c2ccccc2)c1-c1ccccc1
OUTPUT: 85.9

INPUT: # assay system TK-10 renal: give growth of O=C(/C=C/c1ccc(C(F)(F)F)cc1)c1ccc(Nc2nc(NCCO)nc(Nc3ccc(Cl)cc3)n2)cc1
OUTPUT: 86.6
